Molecular target: T1, extracellular domain (ECD) of recombinant human Sortilin with a C-terminal HIS tag (ECD-huSortilin-HIS) (human, UniProt Q99523 78-755)
T1 construct: Bought (R&D Systems); also called human sortilin-ECD; not shown: C-terminal HIS tag
T1 sequence: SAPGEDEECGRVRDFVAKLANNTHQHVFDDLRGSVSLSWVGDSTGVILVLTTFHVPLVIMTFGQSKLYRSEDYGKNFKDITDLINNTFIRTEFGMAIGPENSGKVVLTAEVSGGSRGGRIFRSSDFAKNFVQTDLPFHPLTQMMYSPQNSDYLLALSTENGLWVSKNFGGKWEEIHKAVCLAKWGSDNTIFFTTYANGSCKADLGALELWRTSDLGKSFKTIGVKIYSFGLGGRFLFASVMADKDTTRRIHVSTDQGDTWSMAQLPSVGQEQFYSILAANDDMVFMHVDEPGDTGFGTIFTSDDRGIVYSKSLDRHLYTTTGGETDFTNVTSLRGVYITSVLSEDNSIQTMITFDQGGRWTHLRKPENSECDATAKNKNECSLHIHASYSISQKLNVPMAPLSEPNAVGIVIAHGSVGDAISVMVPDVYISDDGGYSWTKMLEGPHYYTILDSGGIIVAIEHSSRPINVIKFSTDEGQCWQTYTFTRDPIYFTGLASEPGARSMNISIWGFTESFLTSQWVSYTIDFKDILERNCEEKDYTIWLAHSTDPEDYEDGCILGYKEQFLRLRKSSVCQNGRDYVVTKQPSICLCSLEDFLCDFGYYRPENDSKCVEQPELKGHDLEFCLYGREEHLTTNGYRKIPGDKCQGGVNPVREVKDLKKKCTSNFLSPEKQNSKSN
Assay: SPR (Biacore T200), mAb captured by anti-human antibody on CM5, Sortilin 0.1-300 nM as analyte, global 1:1 fit
Reported koff values for a set of binders
Kindly provide the numeric value in s⁻¹ only, without the unit symbol.

Check out these entries, answers already filled in.
[
  {
    "binder": "humanized 5E20 hu5E20VHv5/hu5E20VLv4 (antibody, V domains shown, Human IgG; also called 5E20H5L4) VH: EVQLVESGGGLVQPGGSLRLSCAASGFTFSTYGMSWVRQAPDKRLEWVAIISSGGSYTYYSDTVKGRFTISRDNSKNSLYLQMNSLKAEDTAVYYCSRSSSHWYFDVWGQGTLVTVSS VL: DIQMTQSPSSVSASVGDRVTITCHASQGISSNIGWLQQKPGKAFKGLIYHGTNLKDGVPSRFSGSGSGADFTLTISSLQPEDFADYFCVQYAQFPYTFGQGTKVEKR",
    "units": "s⁻¹",
    "koff": 0.00115
  },
  {
    "binder": "humanized 5E20 hu5E20VHv7/hu5E20VLv4 (antibody, V domains shown, Human IgG; also called 5E20H7L4; hu5E20H7L4) VH: EVQLVESGGGLVQPGGSLRLSCAASGFTFSTYGMSWVRQTPDKRLEWVAIISSGGSYTYYSDTVKGRFTISRDNSKNSLYLQMNSLRAEDTAVYYCSRSSSHWYFDVWGQGTLVTVSS VL: DIQMTQSPSSVSASVGDRVTITCHASQGISSNIGWLQQKPGKAFKGLIYHGTNLKDGVPSRFSGSGSGADFTLTISSLQPEDFADYFCVQYAQFPYTFGQGTKVEKR",
    "units": "s⁻¹",
    "koff": 0.0011
  },
  {
    "binder": "humanized 5E20 hu5E20VHv4/hu5E20VLv4 (antibody, V domains shown, Human IgG; also called 5E20H4L4) VH: EVQLVESGGGLVQPGGSLRLSCAASGFTFSTYGMSWVRQAPDKRLEWVAIISSGGSYTYYSDTVKGRFTISRDNSKNSLYLQMNSLRAEDTAVYYCSRSSSHWYFDVWGQGTLVTVSS VL: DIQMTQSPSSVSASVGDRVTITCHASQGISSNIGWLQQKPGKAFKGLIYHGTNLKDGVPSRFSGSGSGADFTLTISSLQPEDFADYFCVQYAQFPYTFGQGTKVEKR",
    "units": "s⁻¹",
    "koff": 0.00117
  },
  {
    "binder": "humanized 11M14 hu11M14VHv2b/hu11M14VLv2b (antibody, V domains shown, Human IgG; also called 11M14H2bL2b) VH: EVQLVESGGGLVQPGGSLRLSCAASGFTFNIYGMSWVRQAPGKGLEWVATISSGGIYTYYPDILKGRFTISRDNAKNSLYLQMNSGRAEDTAVYYCARHPGGAMDYWGQGTLVTVSS VL: DIQMTQSPSSLSASVGDRVTITCRVSENIYSNLAWYQQKPGKSPKLLVYAATNLADGVPSRFSGSGSGTDYTLTISSLQPEDFATYYCQHFWGTPPWTFGQGTKLEIK",
    "units": "s⁻¹",
    "koff": 0.0012
  },
  {
    "binder": "humanized 5E20 hu5E20VHv4/hu5E20VLv3 (antibody, V domains shown, Human IgG; also called 5E20H4L3) VH: EVQLVESGGGLVQPGGSLRLSCAASGFTFSTYGMSWVRQAPDKRLEWVAIISSGGSYTYYSDTVKGRFTISRDNSKNSLYLQMNSLRAEDTAVYYCSRSSSHWYFDVWGQGTLVTVSS VL: DIQMTQSPSSVSASVGDRVTITCHASQGISSNIGWLQQKPGKAFKGLIYHGTNLKDGVPSRFSGSGSGADFTLTISSLQPEDFATYFCVQYAQFPYTFGQGTKVEKR",
    "units": "s⁻¹",
    "koff": 0.00145
  }
]

Assign koff to the following record: humanized 11M14 hu11M14VHv1b/hu11M14VLv2b (antibody, V domains shown, Human IgG; also called 11M14H1bL2b) VH: EVQLVESGGGLVQPGGSLRLSCAASGFTFNIYGMSWVRQAPGKGLEWVATISSGGIYTYYPDILKGRFTISRDNAKNSLYLQMNSLRAEDTAVYYCARHPGGAMDYWGQGTLVTVSS VL: DIQMTQSPSSLSASVGDRVTITCRVSENIYSNLAWYQQKPGKSPKLLVYAATNLADGVPSRFSGSGSGTDYTLTISSLQPEDFATYYCQHFWGTPPWTFGQGTKLEIK
0.00193

Assign koff to the following record: humanized 11M14 hu11M14VHv3b/hu11M14VLv3b (antibody, V domains shown, Human IgG; also called 11M14H3bL3b) VH: EVQLVESGGGLVQPGGSLRLSCAASGFTFNIYGMSWVRQAPGKGLEWVATISSGGIYTYYPDILKGRFTISRDNAKNSLYGQMNSLRAEDTAVYYCARHPGGAMDYWGQGTLVTVSS VL: DIQMTQSPSSLSASVGDRVTITCRVSENIYSNLAWYQQKPGKSPKLLVYAATNGADGVPSRFSGSGSGTDYTLTISSLQPEDFATYYCQHFWGTPPWTFGQGTKLEIK
0.00343

Assign koff to the following record: humanized 8H24 hu8H24VHv1/hu8H24VLv2 (antibody, V domains shown, Human IgG; also called 8H24H1L2; hu8H24H1L2) VH: QAQLVQSGAEVKKPGSSVKVSCKASGYTFTSYSMHWVRQAPGQGLEWIGAIYPGNDATSYNQKFKGRATLTVDKSTSTAYMELSSLRSEDTAVYFCAREGYYGSSFEAWFASWGQGTTVTVSS VL: DVVMTQTPSSLPVTPGEPASISCRSSQSIVHSNGNTYLEWYLQKPGQSPQLLIYKVSNRFSGVPDRFSGSGSGTDFTLTISRVEAEDVGVYYCFQGSHVLPTFGGGTKVEIK
0.00134

Assign koff to the following record: humanized 11M14 hu11M14VHv3b/hu11M14VLv4b (antibody, V domains shown, Human IgG; also called 11M14H3bL4b) VH: EVQLVESGGGLVQPGGSLRLSCAASGFTFNIYGMSWVRQAPGKGLEWVATISSGGIYTYYPDILKGRFTISRDNAKNSLYGQMNSLRAEDTAVYYCARHPGGAMDYWGQGTLVTVSS VL: DIQMTQSPSSLSASVGDRVTITCRVSENIYSNLAWYQQKPGKSPKLLVYAATNIADGVPSRFSGSGSGTDYTLTISSLQPEDFATYYCQHFWGTPPWTFGQGTKLEIK
0.00344

Assign koff to the following record: humanized 11M14 hu11M14VHv2b/hu11M14VLv3b (antibody, V domains shown, Human IgG; also called 11M14H2bL3b) VH: EVQLVESGGGLVQPGGSLRLSCAASGFTFNIYGMSWVRQAPGKGLEWVATISSGGIYTYYPDILKGRFTISRDNAKNSLYLQMNSGRAEDTAVYYCARHPGGAMDYWGQGTLVTVSS VL: DIQMTQSPSSLSASVGDRVTITCRVSENIYSNLAWYQQKPGKSPKLLVYAATNGADGVPSRFSGSGSGTDYTLTISSLQPEDFATYYCQHFWGTPPWTFGQGTKLEIK
0.00119
